TEST TARGET: hASIC3 (Homo sapiens)
Sequence (Q9UHC3 whole entry): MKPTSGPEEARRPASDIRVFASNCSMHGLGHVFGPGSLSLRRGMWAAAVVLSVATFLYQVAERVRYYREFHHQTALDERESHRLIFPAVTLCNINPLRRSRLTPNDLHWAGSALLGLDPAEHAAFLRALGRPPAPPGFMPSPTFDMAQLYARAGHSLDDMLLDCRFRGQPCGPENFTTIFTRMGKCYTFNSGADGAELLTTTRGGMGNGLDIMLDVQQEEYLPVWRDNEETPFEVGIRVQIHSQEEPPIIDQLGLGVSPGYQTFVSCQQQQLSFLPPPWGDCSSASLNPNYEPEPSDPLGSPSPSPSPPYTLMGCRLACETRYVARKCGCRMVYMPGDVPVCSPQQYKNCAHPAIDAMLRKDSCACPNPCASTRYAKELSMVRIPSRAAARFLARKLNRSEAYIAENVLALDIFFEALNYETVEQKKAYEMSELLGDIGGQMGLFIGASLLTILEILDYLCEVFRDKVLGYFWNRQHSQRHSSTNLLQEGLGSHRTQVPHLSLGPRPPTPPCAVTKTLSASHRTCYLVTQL
ASSAY COMMENT: FlexStation assay on HEK293 cells expressing hASIC3
Type: cell-based
Set-up: expressed in transfected cells; host or cells: HEK293 cells
STUDY CONDITIONS: Table H, cells marked (h3); HEK293; read-out: EC50 (μM) Flex/FLIPR (h3)
Examples of compounds with documented EC50 follow.

Data request, read-out EC50, for Cc1cc(N2CCNCC2)c2ccccc2n1 [Compound M, 2-methyl-4-piperazin-1-yl-quinoline]
> 10 µM

Data request, read-out EC50, for CN1CCN(c2nc(-c3ccccc3F)nc3ccccc23)CC1 [Compound L]
> 10 µM

Data request, read-out EC50, for FC(F)(F)c1ccc2c(OC3CCN(Cc4ccccc4)CC3)ccnc2c1 [Compound S]
> 20 µM
